Source of measurements: patent US20220387405A1

- ASSAY METHOD TEXT: Nonclinical pharmacokinetics in monkeys
- Assay type: in vivo
- CONDITIONS USED: monkey, in vivo, read-out: terminal half-life
ATTRIBUTE MEASURED: half-life

For reference, reported half-life for `O=C1CC[C@H](N2Cc3cc(C(=O)N[C@H](c4ncccc4Cl)C(F)(F)F)ccc3C2=O)C(=O)N1` stands at 2.3 to 4.4 h

----------
- ASSAY METHOD TEXT: Dose toxicity and toxicokinetics study in rats
- Assay type: in vivo
- CONDITIONS USED: female, rat, in vivo, po, Regimen 2 (twice weekly for 4 weeks), oral gavage; read-out: NOAEL (females)
ATTRIBUTE MEASURED: NOAEL (mg/kg)
Give just the numeric value; mg/kg need not be written.

For reference, reported NOAEL for O=C1CC[C@H](N2Cc3cc(C(=O)N[C@H](c4ncccc4Cl)C(F)(F)F)ccc3C2=O)C(=O)N1 [Compound 1] stands at 0.5

----------
- TARGET DESC: CYP2C9 (Homo sapiens)
- Sequence (P11712 whole entry): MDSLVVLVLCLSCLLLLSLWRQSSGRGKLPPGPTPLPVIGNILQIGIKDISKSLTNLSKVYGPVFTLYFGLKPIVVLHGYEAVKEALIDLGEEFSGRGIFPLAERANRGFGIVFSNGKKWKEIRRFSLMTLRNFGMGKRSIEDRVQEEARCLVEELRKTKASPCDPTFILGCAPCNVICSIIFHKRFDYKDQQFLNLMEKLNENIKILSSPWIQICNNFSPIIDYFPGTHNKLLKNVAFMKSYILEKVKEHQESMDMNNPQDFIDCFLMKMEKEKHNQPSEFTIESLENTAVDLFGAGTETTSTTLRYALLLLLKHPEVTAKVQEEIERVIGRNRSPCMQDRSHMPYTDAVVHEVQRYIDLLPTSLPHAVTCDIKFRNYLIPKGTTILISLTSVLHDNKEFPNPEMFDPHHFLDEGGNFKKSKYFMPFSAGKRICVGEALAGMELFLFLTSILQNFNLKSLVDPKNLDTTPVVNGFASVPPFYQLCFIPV
ATTRIBUTE MEASURED: IC50

# IC50 measured on CYP2C9 (Homo sapiens) for item `O=C1CC[C@H](N2Cc3cc(C(=O)N[C@H](c4ncccc4Cl)C(F)(F)F)ccc3C2=O)C(=O)N1` = > 30 µM

----------
- ASSAY METHOD TEXT: GLP repeat-dose toxicity and toxicokinetics study in monkeys
- Type: in vivo, cynomolgus monkeys
- CONDITIONS USED: both sexes, cynomolgus monkey, plasma, po; 0.03 mg/kg, Regimen 1, sexes combined
ATTRIBUTE MEASURED: Cmax
Answer format: value, then unit.

For reference, reported Cmax for `O=C1CC[C@H](N2Cc3cc(C(=O)N[C@H](c4ncccc4Cl)C(F)(F)F)ccc3C2=O)C(=O)N1` stands at 9.95 ng/mL

----------
- ASSAY METHOD TEXT: GLP repeat-dose toxicity and toxicokinetics study in monkeys
- Format: in vivo, cynomolgus monkeys
- CONDITIONS USED: both sexes, cynomolgus monkey, in vivo; Regimen 1 (Days 1-7 and 29-35), oral gavage; read-out: NOAEL
ATTRIBUTE MEASURED: NOAEL (mg/kg)
Give just the numeric value; mg/kg need not be written.

For reference, reported NOAEL for O=C1CC[C@H](N2Cc3cc(C(=O)N[C@H](c4ncccc4Cl)C(F)(F)F)ccc3C2=O)C(=O)N1 [Compound 1] stands at 0.03

----------
- ASSAY METHOD TEXT: Nonclinical pharmacokinetics in monkeys
- Type: in vivo
- CONDITIONS USED: monkey, in vivo, po
ATTRIBUTE MEASURED: bioavailability

For reference, reported bioavailability for `O=C1CC[C@H](N2Cc3cc(C(=O)N[C@H](c4ncccc4Cl)C(F)(F)F)ccc3C2=O)C(=O)N1` stands at ≥ 50%

----------
- ASSAY METHOD TEXT: Dose toxicity and toxicokinetics study in rats
- Assay type: in vivo
- CONDITIONS USED: both sexes, rat, in vivo, po; 0.3 mg/kg, Regimen 1, sexes combined
ATTRIBUTE MEASURED: AUC (ng·h/mL)
Give just the numeric value; ng·h/mL need not be written.

For reference, reported AUC for O=C1CC[C@H](N2Cc3cc(C(=O)N[C@H](c4ncccc4Cl)C(F)(F)F)ccc3C2=O)C(=O)N1 [Compound 1] stands at 761

----------
- TARGET DESC: cloned hERG potassium channel expressed in the HEK-293 cell line (Homo sapiens, UniProt Q12809)
- Sequence (Q12809 whole entry): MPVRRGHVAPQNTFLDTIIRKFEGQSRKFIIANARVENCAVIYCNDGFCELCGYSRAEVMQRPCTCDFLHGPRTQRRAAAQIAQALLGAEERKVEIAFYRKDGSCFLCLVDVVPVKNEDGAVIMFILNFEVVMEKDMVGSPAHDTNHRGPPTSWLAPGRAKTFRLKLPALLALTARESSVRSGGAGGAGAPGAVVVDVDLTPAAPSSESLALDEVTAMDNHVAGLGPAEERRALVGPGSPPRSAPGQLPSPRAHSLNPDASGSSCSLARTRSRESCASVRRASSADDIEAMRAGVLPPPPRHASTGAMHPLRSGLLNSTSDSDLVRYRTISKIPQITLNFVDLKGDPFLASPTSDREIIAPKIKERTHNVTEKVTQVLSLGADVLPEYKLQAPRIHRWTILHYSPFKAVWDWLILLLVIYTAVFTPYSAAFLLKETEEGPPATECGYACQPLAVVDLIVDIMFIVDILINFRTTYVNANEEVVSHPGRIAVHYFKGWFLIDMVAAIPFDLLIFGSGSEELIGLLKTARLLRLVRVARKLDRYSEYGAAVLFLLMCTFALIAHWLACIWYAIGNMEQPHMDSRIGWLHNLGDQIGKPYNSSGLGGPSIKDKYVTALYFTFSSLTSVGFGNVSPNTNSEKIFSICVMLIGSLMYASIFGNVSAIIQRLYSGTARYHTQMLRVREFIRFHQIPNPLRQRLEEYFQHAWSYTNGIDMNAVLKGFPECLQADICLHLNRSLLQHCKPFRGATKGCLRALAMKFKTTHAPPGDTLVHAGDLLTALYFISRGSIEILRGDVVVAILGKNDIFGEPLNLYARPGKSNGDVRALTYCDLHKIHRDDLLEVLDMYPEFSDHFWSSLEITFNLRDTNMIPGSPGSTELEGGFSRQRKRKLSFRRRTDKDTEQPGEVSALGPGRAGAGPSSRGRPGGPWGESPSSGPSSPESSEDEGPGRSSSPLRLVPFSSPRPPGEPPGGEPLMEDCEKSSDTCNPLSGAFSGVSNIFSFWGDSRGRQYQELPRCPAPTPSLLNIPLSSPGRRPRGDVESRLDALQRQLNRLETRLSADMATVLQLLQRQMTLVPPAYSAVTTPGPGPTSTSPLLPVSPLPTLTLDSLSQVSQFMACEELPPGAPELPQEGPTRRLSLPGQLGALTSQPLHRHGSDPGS
- ASSAY METHOD TEXT: hERG IonWorks Barracuda patch clamp electrophysiology assay
- CONDITIONS USED: hERG, IonWorks Barracuda patch clamp
ATTRIBUTE MEASURED: IC50

For reference, reported IC50 for O=C1CC[C@H](N2Cc3cc(C(=O)N[C@H](c4ncccc4Cl)C(F)(F)F)ccc3C2=O)C(=O)N1 [Compound 1] stands at > 30 µM
